The measured values listed here are drawn from ChEMBL document CHEMBL1135632.

Reported IC50 is given for each of the following compounds.
- experimental_target: Tubulin (Bos taurus, UniProt Q6B856+Q862L2+Q862F3)
- method_description: Inhibition of tubulin polymerization at concentration 10 uM
- Type: functional
Use µM as the unit, but write only the number.

[[record]]
cpd_smiles = "O=C(NCCc1ccc(F)cc1)c1cc(NCc2cc(O)ccc2O)ccc1O"
reading = 4


Reported IC50 for Oc1ccc(O)c(CNc2ccc(O)c(/C=C/CCc3ccccc3)c2)c1 was 7.2

So for O=c1oc2ccc(NCc3cc(O)ccc3O)cc2c(=O)n1CCc1ccc(F)cc1 , the logged IC50 turned out to be 6.8

----------
Each item that follows carries a reported GI50.
- Organism: Homo sapiens
- method_description: Cytotoxicity against ovarian OVCAR-3
- Format: functional
A number alone suffices; assume µM.

Answered examples (3):
[[record]]
cpd_smiles = "O=c1oc2ccc(NCc3cc(O)ccc3O)cc2c(=O)n1CCc1ccc(F)cc1"
reading = 2.8

[[record]]
cpd_smiles = "O=C(NCCc1ccc(F)cc1)c1cc(NCc2cc(O)ccc2O)ccc1O"
reading = 0.15

[[record]]
cpd_smiles = "O=C1c2c(O)ccc(NCc3cc(O)ccc3O)c2CN1CCc1ccccc1"
reading = 6.2


The molecule identified as COc1ccc(NCc2cc(O)ccc2O)c2c1C(=O)N(CCc1ccc(F)cc1)C2 registered its GI50 at 8.4
